tested on: Fusobacterium nucleatum; experiment: Inhibition of Fusobacterium nucleatum AI-2-mediated biofilm formation of Fusobacterium nucleatum ATCC 25586 assessed as biofilm average depth at 2 uM incubated for 48 hrs under anaerobic condition by confocal laser scanning microscopic method (reference value: 5.37 um)
MEASUREMENT NAME: Activity (µm)
Return type: number; implicit unit µm.

Use these answered entries as a reference point.
Cc1cccc2c1C(=O)OC2=C(Br)Br	1.72
O=C1OC(=C(Br)Br)C2CCCC12 (centres undefined)	1.82
O=C1C=C(Br)/C(=C/Br)O1	2.02

// next entry
Exam item: Param item = Cc1ccc2c(c1)C(=C(Br)Br)OC2=O ; retrieve measured Activity.
Marked response: 1.87

---

tested on: Fusobacterium nucleatum; assay: Inhibition of Fusobacterium nucleatum ATCC 25586 AI-2 assessed as decrease in biofilm formation at 0.02 to 0.2 uM
Activity calls are given as the source filed them. The rule behind the calls is not given here.
Choose the fitting class; nothing outside active, inactive is accepted.

Some solved cases for reference:
CCCOc1cccc2c1C(=O)OC2=C(Br)Br	inactive
O=C1C=C(Br)/C(=C/Br)O1	active

Would you kindly look at the next entry?
Exam item: Please indicate how the test categorized CCCCOc1cccc2c1C(=O)OC2=C(Br)Br .
Marked response: inactive
